The values you see were collected from PubChem BioAssay AID2060500.

Tested on: 596521-263-R-J1-PDC complex spheroids, viability % of control;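 note: spheroids exposed to drugs for 7 days before viability reading; 100% = DMSO vehicle control viability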
measurement-description: Anticancer human tumor 596521-263-R-J1-PDC patient-derived soft tissue sarcoma cell line growth inhibition [GQUAD]
experimental-parameters: second compound 1 µM; first compound 0.0999 µM; active compounds read low
Hi! Could you tag entries with viability, T/C below 60% as 1, and those at or above as -1? Much appreciated.

Determine if CC[C@@]1(O)C(=O)OCc2c1cc1n(c2=O)Cc2cc3c(CN(C)C)c(O)ccc3nc2-1 + Cc1[nH]c2ccc(F)cc2c1-c1nc2c3cccnc3c3ncccc3c2[nH]1 shows viability, T/C strictly lower than 60%.
1

Determine if Cc1[nH]c2ccccc2c1CCNCc1ccc(/C=C/C(=O)NO)cc1 + CN(C)c1ccc(Nc2c3ccc(NC(=O)CCN4CCCC4)cc3nc3cc(NC(=O)CCN4CCCC4)ccc23)cc1 shows viability, T/C strictly lower than 60%.
1

Determine if Cn1ncnc1[C@H]1c2n[nH]c(=O)c3cc(F)cc(c23)N[C@@H]1c1ccc(F)cc1 + Cc1[nH]c2ccc(F)cc2c1-c1nc2c3cccnc3c3ncccc3c2[nH]1 shows viability, T/C strictly lower than 60%.
-1

Determine if CCc1c2c(nc3ccc(O)cc13)-c1cc3c(c(=O)n1C2)COC(=O)[C@]3(O)CC + Cc1cnc(CNC(=O)c2c(=O)c3ccc(N4CCCN(C)CC4)nc3n3c2sc2ccccc23)cn1 shows viability, T/C strictly lower than 60%.
1

Determine if CCc1c2c(nc3ccc(O)cc13)-c1cc3c(c(=O)n1C2)COC(=O)[C@]3(O)CC + Cc1[nH]c2ccc(F)cc2c1-c1nc2c3cccnc3c3ncccc3c2[nH]1 shows viability, T/C strictly lower than 60%.
1

Determine if Cn1ncnc1[C@H]1c2n[nH]c(=O)c3cc(F)cc(c23)N[C@@H]1c1ccc(F)cc1 + CN(C)c1ccc(Nc2c3ccc(NC(=O)CCN4CCCC4)cc3nc3cc(NC(=O)CCN4CCCC4)ccc23)cc1 shows viability, T/C strictly lower than 60%.
-1

Determine if CCc1c2c(nc3ccc(O)cc13)-c1cc3c(c(=O)n1C2)COC(=O)[C@]3(O)CC + CN(C)c1ccc(Nc2c3ccc(NC(=O)CCN4CCCC4)cc3nc3cc(NC(=O)CCN4CCCC4)ccc23)cc1 shows viability, T/C strictly lower than 60%.
1

Determine if Cc1[nH]c2ccccc2c1CCNCc1ccc(/C=C/C(=O)NO)cc1 + Cc1[nH]c2ccc(F)cc2c1-c1nc2c3cccnc3c3ncccc3c2[nH]1 shows viability, T/C strictly lower than 60%.
-1

Determine if Cc1[nH]c2ccccc2c1CCNCc1ccc(/C=C/C(=O)NO)cc1 + Cc1cnc(CNC(=O)c2c(=O)c3ccc(N4CCCN(C)CC4)nc3n3c2sc2ccccc23)cn1 shows viability, T/C strictly lower than 60%.
1

Determine if CC[C@@]1(O)C(=O)OCc2c1cc1n(c2=O)Cc2cc3c(CN(C)C)c(O)ccc3nc2-1 + CN(C)c1ccc(Nc2c3ccc(NC(=O)CCN4CCCC4)cc3nc3cc(NC(=O)CCN4CCCC4)ccc23)cc1 shows viability, T/C strictly lower than 60%.
1
